Here, each record is paired with measured MIC90 data.
Test system: Streptococcus pneumoniae
Experiment: Antibacterial activity against Streptococcus pneumoniae
Format: functional

Structure Smiles String: CCOC(=O)/C=C1\NC(=O)[C@@H]1[C@@H](C)OC(=O)c1ccccc1
Assayed System: Streptococcus pneumoniae
Inequality Operator: >
MIC90, µg/mL: 128
--
Structure Smiles String: C[C@@H](O[Si](C)(C)C(C)(C)C)[C@H]1C(=O)N/C1=C\C(=O)Oc1cc(O)cc(O)c1
Assayed System: Streptococcus pneumoniae
Inequality Operator: =
MIC90, µg/mL: 16
--
Structure Smiles String: COc1cc(C(=O)O[C@H](C)[C@H]2C(=O)N/C2=C\C(=O)OCc2ccccc2)cc(OC)c1O
Assayed System: Streptococcus pneumoniae
Inequality Operator: =
MIC90, µg/mL: 128
--
Structure Smiles String: CCOC(=O)/C=C1\NC(=O)[C@@H]1[C@@H](C)OC(=O)c1cc(OCc2ccccc2)c(OCc2ccccc2)c(OCc2ccccc2)c1
Assayed System: Streptococcus pneumoniae
Inequality Operator: >
MIC90, µg/mL: 128
--
Structure Smiles String: CCOC(=O)/C=C1\NC(=O)[C@@H]1[C@@H](C)OC(=O)c1ccc(O)cc1
Assayed System: Streptococcus pneumoniae
Inequality Operator: =
MIC90, µg/mL: 128
--
Structure Smiles String: CCOC(=O)/C=C1\NC(=O)[C@@H]1Cl
Assayed System: Streptococcus pneumoniae
Inequality Operator: =
MIC90, µg/mL: 128
--
Structure Smiles String: O=C(O)/C=C1\NC(=O)[C@@H]1Cl
Assayed System: Streptococcus pneumoniae
Inequality Operator: =
MIC90, µg/mL: 128
--
Structure Smiles String: CCOC(=O)/C=C1/NC(=O)[C@@H]1[C@@H](C)O[Si](C)(C)C(C)(C)C
Assayed System: Streptococcus pneumoniae
Inequality Operator: =
MIC90, µg/mL: 128

---

Test system: Haemophilus influenzae
Assay: Antibacterial activity against Haemophilus influenzae
Type: functional

Structure Smiles String: C[C@@H](O)[C@H]1C(=O)N2C(C(=O)O)=C(S[C@@H]3CN[C@H](C(=O)N(C)C)C3)[C@H](C)[C@H]12
MIC50: < 0.06 µg/mL
--
Structure Smiles String: C[C@@H](O[Si](C)(C)C(C)(C)C)[C@H]1C(=O)N/C1=C\C(=O)N[C@@H](Cc1ccc(O)cc1)C(=O)OC(C)(C)C
MIC50: > 128 µg/mL
--
Structure Smiles String: COc1cc(C(=O)O[C@H](C)[C@H]2C(=O)N/C2=C\C(=O)OCc2ccccc2)cc(OC)c1OC
MIC50: > 128 µg/mL
--
Structure Smiles String: CCOC(=O)/C=C1\NC(=O)[C@@H]1[C@@H](C)OC(=O)c1cc(OCc2ccccc2)c(OCc2ccccc2)c(OCc2ccccc2)c1
MIC50: > 128 µg/mL

These measurements were taken from ChEMBL document CHEMBL1147665.
